Target: Somatostatin receptor
Experiment: Compound was tested for in vitro SRIF inhibition of GH release in rats
Assay type: functional
Positions of bridges follow the written chain, without caps; N, C: chain ends. Non-standard residues stand in square brackets, D forms with d. Residues, ends and D or L forms follow the SMILES beside them. 2Nal = N[C@@H](Cc1ccc2ccccc2c1)C(=O)O
RECORDED ENDPOINT: IC50 (nM)
Please give a number only; it is taken to be in nM.

- CC(C)[C@@H]1NC(=O)[C@H](CCCCN)NC(=O)[C@@H](Cc2c[nH]c3ccccc23)NC(=O)[C@H](Cc2c[nH]cn2)NC(=O)[C@H](NC(=O)[C@@H](N)Cc2ccc3ccccc3c2)CSSC[C@@H](C(=O)N[C@@H](Cc2ccc3ccccc3c2)C(N)=O)NC1=O (H-[2Nal][dC]H[dW]KVC[2Nal]-NH2; disulfide 2-7): 53

Please examine the following record next.
q: Given the molecule CC(C)[C@@H]1NC(=O)[C@H](CCCCN)NC(=O)[C@@H](Cc2c[nH]c3ccccc23)NC(=O)[C@H](Cc2ccc(O)cc2)NC(=O)[C@@H](NC(=O)[C@H](N)Cc2ccc3ccccc3c2)CSSC[C@H](C(=O)N[C@@H](Cc2ccc3ccccc3c2)C(N)=O)NC1=O (stereo in doubt; 23) , what is its reported IC50?
a: 1360

* * *

Target: Somatostatin receptor
Assay: Compound was tested for in vitro SRIF inhibition of GH release in rats
Format: functional
Positions of bridges follow the written chain, without caps; N, C: chain ends. Non-standard residues stand in square brackets, D forms with d. Residues, ends and D or L forms follow the SMILES beside them. dBip = N[C@H](Cc1ccc(-c2ccccc2)cc1)C(=O)O; 2Nal = N[C@@H](Cc1ccc2ccccc2c1)C(=O)O
RECORDED ENDPOINT: IC50 (µM)

* CC(C)[C@@H]1NC(=O)[C@H](CCCCN)NC(=O)[C@@H](Cc2c[nH]c3ccccc23)NC(=O)[C@H](Cc2ccc(O)cc2)NC(=O)[C@H](NC(=O)[C@@H](N)Cc2ccc3ccccc3c2)CSSC[C@@H](C(=O)N[C@@H](Cc2ccc(O)cc2)C(N)=O)NC1=O (H-[2Nal][dC]Y[dW]KVCY-NH2; disulfide 2-7) | 0.05
* CC(C)[C@@H]1NC(=O)[C@H](CCCCN)NC(=O)[C@@H](Cc2c[nH]c3ccccc23)NC(=O)[C@H](Cc2ccc(O)cc2)NC(=O)[C@H](NC(=O)[C@@H](N)Cc2ccc3ccccc3c2)CSSC[C@@H](C(=O)N[C@H](Cc2ccc3ccccc3c2)C(N)=O)NC1=O | 0.28
* CC(C)[C@@H]1NC(=O)[C@H](CCCCN)NC(=O)[C@@H](Cc2c[nH]c3ccccc23)NC(=O)[C@H](Cc2ccc(O)cc2)NC(=O)[C@H](NC(=O)[C@H](N)Cc2ccc(-c3ccccc3)cc2)CSSC[C@@H](C(=O)N[C@@H](Cc2ccc3ccccc3c2)C(N)=O)NC1=O (H-[dBip][dC]Y[dW]KVC[2Nal]-NH2; disulfide 2-7) | 0.81
* CC(C)[C@@H]1NC(=O)[C@H](CCCCN)NC(=O)[C@@H](Cc2c[nH]c3ccccc23)NC(=O)[C@H](Cc2ccc(O)cc2)NC(=O)[C@H](NC(=O)[C@H](N)Cc2ccc3ccccc3c2)CSSC[C@H](C(=O)N[C@H](Cc2ccc3ccccc3c2)C(N)=O)NC1=O | 0.375
